biological target: human CatSper channel (Homo sapiens, UniProt Q7RTX7+Q86XQ3+Q8NEC5+Q96P56); test: Whole-cell patch-clamp recording of CatSper currents (ICatSper) from human spermatozoa; format: cell-based; details: read-out: median inhibitory concentration (IC50) of ICatSper, outward currents
Sequence (Q8NEC5 whole entry): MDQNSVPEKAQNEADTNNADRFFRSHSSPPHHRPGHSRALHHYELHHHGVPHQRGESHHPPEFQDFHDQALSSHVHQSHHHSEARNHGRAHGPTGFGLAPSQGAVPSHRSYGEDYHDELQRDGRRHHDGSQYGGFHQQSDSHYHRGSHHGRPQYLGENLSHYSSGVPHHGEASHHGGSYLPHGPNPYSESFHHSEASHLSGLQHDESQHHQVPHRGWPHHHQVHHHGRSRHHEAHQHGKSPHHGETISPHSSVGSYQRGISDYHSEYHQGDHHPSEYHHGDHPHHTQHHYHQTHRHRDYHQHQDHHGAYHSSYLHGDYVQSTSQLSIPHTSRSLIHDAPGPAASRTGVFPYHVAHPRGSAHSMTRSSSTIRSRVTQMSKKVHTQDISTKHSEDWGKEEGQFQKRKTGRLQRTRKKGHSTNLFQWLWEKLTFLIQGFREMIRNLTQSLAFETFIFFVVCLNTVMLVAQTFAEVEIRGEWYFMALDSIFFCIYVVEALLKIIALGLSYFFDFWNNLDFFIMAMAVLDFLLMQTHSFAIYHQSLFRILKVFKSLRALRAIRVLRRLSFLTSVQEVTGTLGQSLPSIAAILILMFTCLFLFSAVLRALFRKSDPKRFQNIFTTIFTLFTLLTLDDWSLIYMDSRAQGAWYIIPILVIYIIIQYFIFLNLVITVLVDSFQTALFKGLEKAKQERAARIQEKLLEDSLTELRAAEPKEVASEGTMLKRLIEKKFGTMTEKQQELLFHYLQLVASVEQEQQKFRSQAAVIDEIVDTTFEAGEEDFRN
Sequence (Q86XQ3 whole entry): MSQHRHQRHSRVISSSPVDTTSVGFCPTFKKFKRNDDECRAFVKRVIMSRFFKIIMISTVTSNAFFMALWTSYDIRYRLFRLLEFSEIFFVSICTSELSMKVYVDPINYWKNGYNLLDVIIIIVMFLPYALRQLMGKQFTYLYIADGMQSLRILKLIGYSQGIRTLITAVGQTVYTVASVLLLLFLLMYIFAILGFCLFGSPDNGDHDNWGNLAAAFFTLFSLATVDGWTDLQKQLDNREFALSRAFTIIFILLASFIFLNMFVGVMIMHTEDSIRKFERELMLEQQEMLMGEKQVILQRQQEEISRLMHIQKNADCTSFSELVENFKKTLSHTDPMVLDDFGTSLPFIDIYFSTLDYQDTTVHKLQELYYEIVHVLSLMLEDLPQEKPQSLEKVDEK
Sequence (Q96P56 whole entry): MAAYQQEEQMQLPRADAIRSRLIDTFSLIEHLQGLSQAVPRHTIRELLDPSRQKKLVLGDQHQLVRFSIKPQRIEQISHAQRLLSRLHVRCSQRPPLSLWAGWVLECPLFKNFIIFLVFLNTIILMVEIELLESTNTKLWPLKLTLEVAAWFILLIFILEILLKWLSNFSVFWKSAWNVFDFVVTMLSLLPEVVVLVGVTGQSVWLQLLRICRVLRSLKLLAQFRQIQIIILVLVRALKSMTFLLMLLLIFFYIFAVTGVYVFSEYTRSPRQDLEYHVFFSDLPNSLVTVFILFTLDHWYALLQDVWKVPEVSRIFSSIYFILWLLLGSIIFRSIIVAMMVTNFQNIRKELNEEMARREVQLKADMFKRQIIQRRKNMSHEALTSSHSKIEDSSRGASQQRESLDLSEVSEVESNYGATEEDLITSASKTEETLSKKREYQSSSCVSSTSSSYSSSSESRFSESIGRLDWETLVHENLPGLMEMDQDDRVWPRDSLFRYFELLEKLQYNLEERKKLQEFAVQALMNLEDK
Sequence (Q7RTX7 whole entry): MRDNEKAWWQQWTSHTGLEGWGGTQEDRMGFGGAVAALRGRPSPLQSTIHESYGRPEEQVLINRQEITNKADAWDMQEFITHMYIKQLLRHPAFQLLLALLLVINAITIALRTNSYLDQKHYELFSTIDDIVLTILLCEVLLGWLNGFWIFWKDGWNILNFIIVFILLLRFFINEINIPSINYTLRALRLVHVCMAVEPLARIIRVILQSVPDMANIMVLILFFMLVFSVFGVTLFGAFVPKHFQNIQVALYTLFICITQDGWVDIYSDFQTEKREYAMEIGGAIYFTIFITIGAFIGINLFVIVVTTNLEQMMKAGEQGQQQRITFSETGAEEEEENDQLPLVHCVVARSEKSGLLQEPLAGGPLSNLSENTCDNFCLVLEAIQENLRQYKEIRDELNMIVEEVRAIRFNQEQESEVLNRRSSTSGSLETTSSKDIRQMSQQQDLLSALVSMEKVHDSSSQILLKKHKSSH

- item smiles: "CCCCC/C=C\\C/C=C\\C/C=C\\C/C=C\\CCCC(=O)OC(CO)CO"
  IC50 [nM]: 350

---

molecular target: human CatSper channel (Homo sapiens, UniProt Q7RTX7+Q86XQ3+Q8NEC5+Q96P56); test: Whole-cell patch-clamp recording of CatSper currents (ICatSper) from human spermatozoa; type: cell-based; conditions: read-out: median inhibitory concentration (IC50) of ICatSper, inward currents
endpoint label: IC50 (nM)

- molecule: "CCCCC/C=C\\C/C=C\\C/C=C\\C/C=C\\CCCC(=O)OC(CO)CO [2-AG, 2-arachidonoylglycerol]"
  unit abbreviation: "nM"
  test result: 670
